B1: CAMK2D (parent)
chain: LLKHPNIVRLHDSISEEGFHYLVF

Variants of: B1
method description: protein stability index of a GFP-peptide fusion (GPS, HEK-293T) (PSI 1-6); higher = more stable;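 also: lentivirally expressed fusions sorted by FACS into six bins by GFP to DsRed ratio, PSI derived from sequencing read proportions per bin multiplied by bin number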
setup conditions: c terminus: a fixed tail appended
Reported protein stability index by item:
assay readout: protein stability index

variant_designation=P5H assay_readout="protein stability index" obs_value=2.4
variant_designation=N6P assay_readout="protein stability index" obs_value=2.15
variant_designation=V8M assay_readout="protein stability index" obs_value=2.59
variant_designation=H20Q assay_readout="protein stability index" obs_value=2.65
variant_designation=V8F assay_readout="protein stability index" obs_value=1.47
variant_designation=E17W assay_readout="protein stability index" obs_value=2.94
variant_designation=Y21F assay_readout="protein stability index" obs_value=2.92
variant_designation=G18F assay_readout="protein stability index" obs_value=2.73
variant_designation=L1N assay_readout="protein stability index" obs_value=2.14
variant_designation=S15H assay_readout="protein stability index" obs_value=2.1
variant_designation=S13V assay_readout="protein stability index" obs_value=3.9
variant_designation=G18L assay_readout="protein stability index" obs_value=3.43
variant_designation=R9T assay_readout="protein stability index" obs_value=1.68
variant_designation=L2Q assay_readout="protein stability index" obs_value=1.76
variant_designation=S13D assay_readout="protein stability index" obs_value=2.46
variant_designation=F19S assay_readout="protein stability index" obs_value=1.45
variant_designation=P5S assay_readout="protein stability index" obs_value=2.59
variant_designation=E17G assay_readout="protein stability index" obs_value=2.8
variant_designation=H20Y assay_readout="protein stability index" obs_value=1.41
variant_designation=L1Q assay_readout="protein stability index" obs_value=1.77
variant_designation=H4Y assay_readout="protein stability index" obs_value=2.32
variant_designation=H20A assay_readout="protein stability index" obs_value=1.73
